Provenance of the data: PubChem BioAssay (NCI)

Tested on: UACC-62 melanoma
method description: NCI-60 one-dose screen, 48 h (100 = growth as untreated, 0 = no growth, -100 = all killed)
experimental parameters: 10 µM unless noted
The panel holds about 83,000 compounds, 20% with a hit somewhere; the sample as a whole holds those more often.
Returns: string. Value is fulfilled if measured growth is below 60%, and not fulfilled if it is greater than or equal to it.

Does the reported growth of the following compound sit strictly below 60%? CN1CCC(=C2c3ccccc3C=Cc3ccccc32)CC1 not fulfilled

Identify whether the compound O=c1[nH]nc(-c2ccc(Cl)cc2)cc1Cc1ccccc1 records growth below 60%. not fulfilled

Threshold test, growth < 60%: CCOC(=O)c1nnn(C(Cc2ccccc2Cl)C(=O)OCC)c1C (configuration not stated) not fulfilled

Field: below-cutoff. Rule: recorded growth strictly less than 60%. Subject: CCOC(=O)c1cnn2c(-c3ccc(Cl)cc3)nc(NCc3ccccc3)nc12 not fulfilled

growth strictly < 60% for this compound? CCc1c(C(=O)N[C@@H]2c3cc(Cl)ccc3CC[C@@H]2O)[nH]c(C)c1C(C)=O not fulfilled

Lab note: growth threshold 60%. Does this compound come in strictly under it? CNC1(C#N)CCN(Cc2ccccc2)CC1 not fulfilled

Please check: growth for Cn1ccnc1C(=O)/C=C/c1ccc(C(=O)Nc2ccc(S(F)(F)(F)(F)F)cc2)cc1 , strictly under 60% or not? fulfilled

Is growth strictly under 60% for the entry CS(=O)(=O)c1ccc(-c2nc3cc(Cl)ccc3n2CC(=O)NO)cc1 ? not fulfilled

Lab note: confirm whether the reported growth for this compound is below 60%, equality not counting. compound: COc1cc2oc(-c3cccc(C(=O)Nc4ccc(C)cc4)c3)cc(=O)c2c(OC)c1OC fulfilled

Bench note: check whether CC(c1ccc(-n2cccn2)cc1)c1cnc(N2CCc3ccc(C(N)=O)cc3C2)s1 (configuration not stated) shows growth below 60% fulfilled
